The values you see were collected from PubChem BioAssay AID1963451.

Test system: 521955-158-R6-J3-PDC complex spheroid growth, % test/control
Assay: Anticancer human tumor 521955-158-R6-J3-PDC patient-derived pancreatic carcinoma cell line growth inhibition [Asc]
Assay context: second compound 10 µM; first compound 0.316 µM; stronger effect = lower value
Give viability, T/C for every item shown.

Worked set:
- Molecule: "COc1c(OCCCN2CCOCC2)ccc2c3n(c(=NC(=O)c4cnc(N)nc4)nc12)CCN3 + Cc1c(S(C)(=O)=O)c(-c2cc(F)cc(N3CCN(c4ccc(NS(=O)(=O)c5ccc(NC(CCN6CCC(C(=O)OCCCP(=O)(O)O)CC6)CSc6ccccc6)c(S(=O)(=O)C(F)(F)F)c5)cc4)CC3)c2)c(-c2ccc(Cl)cc2)n1C(C)C"
  viability, T/C: "2.64%"
- Molecule: "O=C(c1ccc(F)c(F)c1Nc1ccc(I)cc1F)N1CC(O)([C@@H]2CCCCN2)C1 + Cc1c(S(C)(=O)=O)c(-c2cc(F)cc(N3CCN(c4ccc(NS(=O)(=O)c5ccc(NC(CCN6CCC(C(=O)OCCCP(=O)(O)O)CC6)CSc6ccccc6)c(S(=O)(=O)C(F)(F)F)c5)cc4)CC3)c2)c(-c2ccc(Cl)cc2)n1C(C)C"
  viability, T/C: "1.23%"

Turning to the following molecule.
Exam item: Provide measured viability, T/C value, entry: CNC(C)C(=O)NC1CN(S(=O)(=O)c2cccc(S(=O)(=O)N3CCC4CCC(C(=O)NC(c5ccccc5)c5ccccc5)N4C(=O)C(NC(=O)C(C)NC)C3)c2)CCC2CCC(C(=O)NC(c3ccccc3)c3ccccc3)N2C1=O (stereo not drawn) + Cc1c(S(C)(=O)=O)c(-c2cc(F)cc(N3CCN(c4ccc(NS(=O)(=O)c5ccc(NC(CCN6CCC(C(=O)OCCCP(=O)(O)O)CC6)CSc6ccccc6)c(S(=O)(=O)C(F)(F)F)c5)cc4)CC3)c2)c(-c2ccc(Cl)cc2)n1C(C)C
Marked response: 10.4%

====

Test system: 521955-158-R6-J3-PDC complex spheroid growth, % test/control
Assay: Anticancer human tumor 521955-158-R6-J3-PDC cell line growth inhibition [Asc];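 note: spheroids exposed to compounds for 7 days; 100% = DMSO vehicle control wells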
Assay context: second compound 1 µM; first compound 0.00316 µM; stronger effect = lower value
Give viability, T/C for every item shown.

Worked set:
- Compound: "CCN1CCN(Cc2ccc(Nc3ncc(F)c(-c4cc(F)c5nc(C)n(C(C)C)c5c4)n3)nc2)CC1 + CNC(C)C(=O)NC1CN(S(=O)(=O)c2cccc(S(=O)(=O)N3CCC4CCC(C(=O)NC(c5ccccc5)c5ccccc5)N4C(=O)C(NC(=O)C(C)NC)C3)c2)CCC2CCC(C(=O)NC(c3ccccc3)c3ccccc3)N2C1=O"
  Endpoint label: "viability, T/C"
  Meas value: "86.3%"
- Compound: "Cn1ncnc1[C@H]1c2n[nH]c(=O)c3cc(F)cc(c23)N[C@@H]1c1ccc(F)cc1 + CNC(C)C(=O)NC1CN(S(=O)(=O)c2cccc(S(=O)(=O)N3CCC4CCC(C(=O)NC(c5ccccc5)c5ccccc5)N4C(=O)C(NC(=O)C(C)NC)C3)c2)CCC2CCC(C(=O)NC(c3ccccc3)c3ccccc3)N2C1=O"
  Endpoint label: "viability, T/C"
  Meas value: "83.9%"
- Compound: "COc1c(OCCCN2CCOCC2)ccc2c3n(c(=NC(=O)c4cnc(N)nc4)nc12)CCN3 + Cc1c(S(C)(=O)=O)c(-c2cc(F)cc(N3CCN(c4ccc(NS(=O)(=O)c5ccc(NC(CCN6CCC(C(=O)OCCCP(=O)(O)O)CC6)CSc6ccccc6)c(S(=O)(=O)C(F)(F)F)c5)cc4)CC3)c2)c(-c2ccc(Cl)cc2)n1C(C)C"
  Endpoint label: "viability, T/C"
  Meas value: "33.9%"

Return reported viability, T/C values for all items listed beneath this line.
1. NC1CCC(NC2CC2c2ccccc2)CC1 (configuration not stated) + Cc1c(S(C)(=O)=O)c(-c2cc(F)cc(N3CCN(c4ccc(NS(=O)(=O)c5ccc(NC(CCN6CCC(C(=O)OCCCP(=O)(O)O)CC6)CSc6ccccc6)c(S(=O)(=O)C(F)(F)F)c5)cc4)CC3)c2)c(-c2ccc(Cl)cc2)n1C(C)C
2. NC1CCC(NC2CC2c2ccccc2)CC1 (configuration not stated) + CNC(C)C(=O)NC1CN(S(=O)(=O)c2cccc(S(=O)(=O)N3CCC4CCC(C(=O)NC(c5ccccc5)c5ccccc5)N4C(=O)C(NC(=O)C(C)NC)C3)c2)CCC2CCC(C(=O)NC(c3ccccc3)c3ccccc3)N2C1=O
3. O=C(c1ccc(F)c(F)c1Nc1ccc(I)cc1F)N1CC(O)([C@@H]2CCCCN2)C1 + CNC(C)C(=O)NC1CN(S(=O)(=O)c2cccc(S(=O)(=O)N3CCC4CCC(C(=O)NC(c5ccccc5)c5ccccc5)N4C(=O)C(NC(=O)C(C)NC)C3)c2)CCC2CCC(C(=O)NC(c3ccccc3)c3ccccc3)N2C1=O

Marked response:
["38.5%", "76.9%", "78.9%"]

Exam item: Find viability, T/C for COc1c(OCCCN2CCOCC2)ccc2c3n(c(=NC(=O)c4cnc(N)nc4)nc12)CCN3 + CNC(C)C(=O)NC1CN(S(=O)(=O)c2cccc(S(=O)(=O)N3CCC4CCC(C(=O)NC(c5ccccc5)c5ccccc5)N4C(=O)C(NC(=O)C(C)NC)C3)c2)CCC2CCC(C(=O)NC(c3ccccc3)c3ccccc3)N2C1=O on 521955-158-R6-J3-PDC complex spheroid growth, % test/control and write it down.
Marked response: 77.1%

====

System: 521955-158-R6-J3-PDC complex spheroid growth, % test/control
Assay: Anticancer human tumor 521955-158-R6-J3-PDC cell line growth inhibition [Asc];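 note: spheroids exposed to compounds for 7 days; 100% = DMSO vehicle control wells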
Assay context: second compound 0.01 µM; first compound 0.1 µM; stronger effect = lower value
Decide using viability, T/C alone. Strictly below 80%: Yes. Equal to or above 80%: No.

Past entries and their recorded results:
- Compound: "CCN1CCN(Cc2ccc(Nc3ncc(F)c(-c4cc(F)c5nc(C)n(C(C)C)c5c4)n3)nc2)CC1 + CNC(C)C(=O)NC1CN(S(=O)(=O)c2cccc(S(=O)(=O)N3CCC4CCC(C(=O)NC(c5ccccc5)c5ccccc5)N4C(=O)C(NC(=O)C(C)NC)C3)c2)CCC2CCC(C(=O)NC(c3ccccc3)c3ccccc3)N2C1=O"
  Assigned class: "Yes"
- Compound: "Cn1ncnc1[C@H]1c2n[nH]c(=O)c3cc(F)cc(c23)N[C@@H]1c1ccc(F)cc1 + CNC(C)C(=O)NC1CN(S(=O)(=O)c2cccc(S(=O)(=O)N3CCC4CCC(C(=O)NC(c5ccccc5)c5ccccc5)N4C(=O)C(NC(=O)C(C)NC)C3)c2)CCC2CCC(C(=O)NC(c3ccccc3)c3ccccc3)N2C1=O"
  Assigned class: "No"
- Compound: "C=C(F)C(=O)N1CCN(c2nc(OCC3CCCN3C)nc3c2CCN(c2cccc4cccc(Cl)c24)C3)CC1CC#N (stereo not given) + CNC(C)C(=O)NC1CN(S(=O)(=O)c2cccc(S(=O)(=O)N3CCC4CCC(C(=O)NC(c5ccccc5)c5ccccc5)N4C(=O)C(NC(=O)C(C)NC)C3)c2)CCC2CCC(C(=O)NC(c3ccccc3)c3ccccc3)N2C1=O"
  Assigned class: "No"

Kindly consider the entry below.
Exam item: Given O=C(c1ccc(F)c(F)c1Nc1ccc(I)cc1F)N1CC(O)([C@@H]2CCCCN2)C1 + CNC(C)C(=O)NC1CN(S(=O)(=O)c2cccc(S(=O)(=O)N3CCC4CCC(C(=O)NC(c5ccccc5)c5ccccc5)N4C(=O)C(NC(=O)C(C)NC)C3)c2)CCC2CCC(C(=O)NC(c3ccccc3)c3ccccc3)N2C1=O , is recorded viability, T/C strictly lower than 80%?
Marked response: Yes

====

Test system: 521955-158-R6-J3-PDC complex spheroid growth, % test/control
Assay: Anticancer human tumor 521955-158-R6-J3-PDC cell line growth inhibition [Asc];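 note: spheroids exposed to compounds for 7 days; 100% = DMSO vehicle control wells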
Assay context: second compound 0.316 µM; first compound 1 µM; stronger effect = lower value
Endpoint label: viability, T/C (%)
Numbers only, in %.

- Molecule: "O=C(c1cc(Cc2n[nH]c(=O)c3ccccc23)ccc1F)N1CCN(C(=O)C2CC2)CC1 + CNC(C)C(=O)NC1CN(S(=O)(=O)c2cccc(S(=O)(=O)N3CCC4CCC(C(=O)NC(c5ccccc5)c5ccccc5)N4C(=O)C(NC(=O)C(C)NC)C3)c2)CCC2CCC(C(=O)NC(c3ccccc3)c3ccccc3)N2C1=O"
  Measurement units: "%"
  viability, T/C: 72.7

Return reported viability, T/C values for all items listed beneath this line.
1. C#Cc1c(F)ccc2cc(O)cc(-c3ncc4c(N5CC6CCC(C5)N6)nc(OCC56CCCN5CC(F)C6)nc4c3F)c12 (configuration not stated) + Cc1c(S(C)(=O)=O)c(-c2cc(F)cc(N3CCN(c4ccc(NS(=O)(=O)c5ccc(NC(CCN6CCC(C(=O)OCCCP(=O)(O)O)CC6)CSc6ccccc6)c(S(=O)(=O)C(F)(F)F)c5)cc4)CC3)c2)c(-c2ccc(Cl)cc2)n1C(C)C
2. C=C(F)C(=O)N1CCN(c2nc(OCC3CCCN3C)nc3c2CCN(c2cccc4cccc(Cl)c24)C3)CC1CC#N (configuration not stated) + Cc1c(S(C)(=O)=O)c(-c2cc(F)cc(N3CCN(c4ccc(NS(=O)(=O)c5ccc(NC(CCN6CCC(C(=O)OCCCP(=O)(O)O)CC6)CSc6ccccc6)c(S(=O)(=O)C(F)(F)F)c5)cc4)CC3)c2)c(-c2ccc(Cl)cc2)n1C(C)C
3. COc1c(OCCCN2CCOCC2)ccc2c3n(c(=NC(=O)c4cnc(N)nc4)nc12)CCN3 + Cc1c(S(C)(=O)=O)c(-c2cc(F)cc(N3CCN(c4ccc(NS(=O)(=O)c5ccc(NC(CCN6CCC(C(=O)OCCCP(=O)(O)O)CC6)CSc6ccccc6)c(S(=O)(=O)C(F)(F)F)c5)cc4)CC3)c2)c(-c2ccc(Cl)cc2)n1C(C)C
4. CNC(C)C(=O)NC1CN(S(=O)(=O)c2cccc(S(=O)(=O)N3CCC4CCC(C(=O)NC(c5ccccc5)c5ccccc5)N4C(=O)C(NC(=O)C(C)NC)C3)c2)CCC2CCC(C(=O)NC(c3ccccc3)c3ccccc3)N2C1=O (configuration not stated) + Cc1c(S(C)(=O)=O)c(-c2cc(F)cc(N3CCN(c4ccc(NS(=O)(=O)c5ccc(NC(CCN6CCC(C(=O)OCCCP(=O)(O)O)CC6)CSc6ccccc6)c(S(=O)(=O)C(F)(F)F)c5)cc4)CC3)c2)c(-c2ccc(Cl)cc2)n1C(C)C
5. C=C(F)C(=O)N1CCN(c2nc(OCC3CCCN3C)nc3c2CCN(c2cccc4cccc(Cl)c24)C3)CC1CC#N (configuration not stated) + CNC(C)C(=O)NC1CN(S(=O)(=O)c2cccc(S(=O)(=O)N3CCC4CCC(C(=O)NC(c5ccccc5)c5ccccc5)N4C(=O)C(NC(=O)C(C)NC)C3)c2)CCC2CCC(C(=O)NC(c3ccccc3)c3ccccc3)N2C1=O
6. COc1c(OCCCN2CCOCC2)ccc2c3n(c(=NC(=O)c4cnc(N)nc4)nc12)CCN3 + CNC(C)C(=O)NC1CN(S(=O)(=O)c2cccc(S(=O)(=O)N3CCC4CCC(C(=O)NC(c5ccccc5)c5ccccc5)N4C(=O)C(NC(=O)C(C)NC)C3)c2)CCC2CCC(C(=O)NC(c3ccccc3)c3ccccc3)N2C1=O

Marked response:
1: 15.6; 2: 36.9; 3: 13; 4: 35.5; 5: 68.8; 6: 24.9
